Here's a batch of compounds along with measured Ki for Mu-type opioid receptor (Homo sapiens, UniProt P35372).
Enter the number, and then the unit.

Examples with their reported Ki follow.
[[record]]
compound = "O=C(COc1ccccc1)Oc1ccc2c(c1)[C@@]13CCCC[C@@]1(O)[C@@H](C2)N(CC1CCC1)CC3"
target_or_test_system = "Mu-type opioid receptor (Homo sapiens, UniProt P35372)"
observed_result = "0.061 nM"

[[record]]
compound = "O=C(Oc1ccc2c(c1)[C@@]13CCCC[C@@]1(O)[C@@H](C2)N(CC1CCC1)CC3)c1ccc(-c2ccccc2)cc1"
target_or_test_system = "Mu-type opioid receptor (Homo sapiens, UniProt P35372)"
observed_result = "15 nM"


Prompt: Look up Ki for this compound: `NC(=O)COc1ccc2c(c1)[C@@]13CCCC[C@@]1(O)[C@@H](C2)N(CC1CCC1)CC3`
Response: 55 nM

Prompt: Now the same for `O=[N+]([O-])c1ccc(Oc2ccc3c(c2)[C@@]24CCCC[C@@]2(O)[C@@H](C3)N(CC2CCC2)CC4)cc1`
Response: 16 nM

Prompt: Now the same for Cc1ccc(C(C)C(=O)Oc2ccc3c(c2)[C@@]24CCCC[C@@]2(O)[C@@H](C3)N(CC2CCC2)CC4)cc1 (stereo not given in full)
Response: 2.3 nM
